targetUnderTest: protein-protein interaction between Kras and SOS1 (biotin-tagged human Kras loaded with GDP, His-tagged human SOS1) (Homo sapiens (Human), UniProt P01116, G12D)
assayText: Protein-protein interaction inhibition between Kras and SOS1 (KrasG12D-SOS PPI) using AlphaScreen
Format: biochemical
conditionSet: AlphaScreen; biotin-tagged human Kras loaded with GDP, His-tagged human SOS1; read-out: KRAS G12D-SOS PPI IC50
Bridge positions count the residues as written; N and C are the ends. Square brackets hold non-standard residues; d marks the D form. Peptide text beside a SMILES is read from it. * marks the point of attachment. hPhe(3-Cl-4-CF3) = N[C@@H](CCc1ccc(C(F)(F)F)c(Cl)c1)C(=O)O; hPhe(3-F,4-CF3) = N[C@@H](CCc1ccc(C(F)(F)F)c(F)c1)C(=O)O; NMePhe(4-Me) = CN[C@@H](Cc1ccc(C)cc1)C(=O)O; NMeCha = CN[C@@H](CC1CCCCC1)C(=O)O; NMeChg = CN[C@H](C(=O)O)C1CCCCC1; NMeI = CC[C@H](C)[C@H](NC)C(=O)O; NMeD = CN[C@@H](CC(=O)O)C(=O)O; CH2CONHtBu = CC(C)(C)NC(=O)C*; NMeL = CN[C@@H](CC(C)C)C(=O)O; NMeS = CN[C@@H](CO)C(=O)O; NMeA = CN[C@@H](C)C(=O)O; Piperidide = C1CCN(*)CC1; Pyrrolidide = C1CCN(*)C1; Ac5c = NC1(C(=O)O)CCCC1; Aze = O=C(O)[C@@H]1CCN1; Sar = CNCC(=O)O
quantityKind: pIC50
The scale used: pIC50 is minus the common logarithm of the concentration in molar units.

Please supply the value of reported pIC50 for the item CC[C@H](C)[C@@H]1NC(=O)[C@H](CC(C)C)N(C)C(=O)C[C@@H](C(=O)N2CCCCC2)N(C)C(=O)[C@H](C2CCCCC2)N(C)C(=O)C2(CCCC2)NC(=O)[C@H](COCC(=O)NC(C)(C)C)N(C)C(=O)[C@H](CCc2ccc(C(F)(F)F)c(Cl)c2)NC(=O)CN(C)C(=O)[C@H](CC2CCCCC2)N(C)C(=O)CN(C)C(=O)CN(C)C1=O [Compound 727] ([NMeL]I[Sar][Sar][NMeCha][Sar][hPhe(3-Cl-4-CF3)][NMeS](CH2CONHtBu)[Ac5c][NMeChg][NMeD]-Piperidide; lactam N-11)
8.16

Please supply the value of reported pIC50 for the item CC[C@H](C)[C@@H]1NC(=O)[C@H](CC(C)C)N(C)C(=O)C[C@@H](C(=O)N2CCCC2)N(C)C(=O)[C@H]([C@@H](C)CC)N(C)C(=O)C2(CCCC2)NC(=O)[C@@H]2CCCN2C(=O)[C@H](CCc2ccc(C(F)(F)F)c(F)c2)NC(=O)CN(C)C(=O)[C@H](Cc2ccc(C)cc2)N(C)C(=O)[C@@H]2CCN2C(=O)[C@H](C)N(C)C1=O [Compound 44] ([NMeL]I[NMeA][Aze][NMePhe(4-Me)][Sar][hPhe(3-F,4-CF3)]P[Ac5c][NMeI][NMeD]-Pyrrolidide; lactam N-11)
8.96

---

targetUnderTest: protein-protein interaction between Kras and SOS1 (biotin-tagged human Kras loaded with GDP, His-tagged human SOS1) (Homo sapiens (Human), UniProt P01116, G12D)
assayText: Protein-protein interaction inhibition between Kras and SOS1 (KrasG12D-SOS PPI) using AlphaScreen;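 further: kras produced in E. coli, Ni-coupled donor beads and streptavidin acceptor beads, excitation 680 nm with emission detected at 520–620 nm via singlet oxygen transfer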
Type: biochemical
conditionSet: AlphaScreen; biotin-tagged human Kras loaded with GDP, His-tagged human SOS1; read-out: KRAS G12D-SOS PPI IC50
Numbered stars: 1 amine (or outer) side, 2 acyl side, 3 side chain; on linkers, the order of the positions; unused ones are H or OH. Bridge positions count the residues as written; N and C are the ends. Square brackets hold non-standard residues; d marks the D form. Peptide text beside a SMILES is read from it. * marks the point of attachment. hPhe(3-Cl-4-CF3) = N[C@@H](CCc1ccc(C(F)(F)F)c(Cl)c1)C(=O)O; X16 = CS(=O)(=O)c1ccc(CC[C@H](N[*:1])C(=O)[*:2])cc1; hPhe(4-CF3) = N[C@@H](CCc1ccc(C(F)(F)F)cc1)C(=O)O; 3Oxa8azabicyclo(3.2.1)octane = C1CC2COCC1N2*; NMePhe(4-Cl) = CN[C@@H](Cc1ccc(Cl)cc1)C(=O)O; NMedβ3hAla = C[C@H](CC(=O)[*:2])N(C)[*:1]; NMeAla(cPent) = CN[C@@H](CC1CCCC1)C(=O)O; NMeGly(cPent) = CN[C@H](C(=O)O)C1CCCC1; NMeCha = CN[C@@H](CC1CCCCC1)C(=O)O; NMeChg = CN[C@H](C(=O)O)C1CCCCC1; NMeD = CN[C@@H](CC(=O)O)C(=O)O; NMeL = CN[C@@H](CC(C)C)C(=O)O; NMeV = CN[C@H](C(=O)O)C(C)C; Trifluoroethyl = FC(F)(F)C*; NMeS = CN[C@@H](CO)C(=O)O; NMeA = CN[C@@H](C)C(=O)O; NMeAib = CNC(C)(C)C(=O)O; Piperidide = C1CCN(*)CC1; Ac5c = NC1(C(=O)O)CCCC1; Aze = O=C(O)[C@@H]1CCN1; Alloc = C=CCOC(=O)*; Sar = CNCC(=O)O; Propyl = CCC*
Exercise: state measured IC50 for each of the molecules provided.
Provide the reading as a plain figure in nM.

Please supply the value of reported IC50 for the item CCCOC[C@H]1C(=O)N(C)CC(=O)N[C@@H](CCc2ccc(C(F)(F)F)c(Cl)c2)C(=O)N2CCC[C@H]2C(=O)NC2(CCCC2)C(=O)N(C)[C@@H](C2CCCC2)C(=O)N(C)[C@H](C(=O)N2C3CCC2COC3)CC(=O)N(C)[C@@H](CC2CCCC2)C(=O)N[C@@H]([C@@H](C)CC)C(=O)N(C)[C@@H](C)C(=O)N2CC[C@H]2C(=O)N1C [Compound 1251] ([NMeAla(cPent)]I[NMeA][Aze][NMeS](Propyl)[Sar][hPhe(3-Cl-4-CF3)]P[Ac5c][NMeGly(cPent)][NMeD]-{3Oxa8azabicyclo(3.2.1)octane}; lactam N-11)
2.6

Please supply the value of reported IC50 for the item C=CCOC(=O)NCCCC[C@@H]1NC(=O)[C@H](CCc2ccc(C(F)(F)F)cc2)NC(=O)CN(C)C(=O)[C@H](Cc2ccc(Cl)cc2)N(C)C(=O)CN(C)C(=O)CN(C)C(=O)[C@H]([C@@H](C)CC)NC(=O)[C@H](CC(C)C)N(C)C(=O)C[C@@H](C)N(C)C(=O)[C@H](CC(C)C)NC(=O)C(C)(C)N(C)C1=O [Compound 12] (cyclo(I[Sar][Sar][NMePhe(4-Cl)][Sar][hPhe(4-CF3)]K(Alloc)[NMeAib]L[NMedβ3hAla][NMeL]))
240

Please supply the value of reported IC50 for the item CC[C@H](C)[C@@H]1NC(=O)[C@H](CC(C)C)N(C)C(=O)C[C@@H](C(=O)N(C)C)NC(=O)[C@H](C2CCCC2)N(C)C(=O)C2(CCCC2)NC(=O)[C@@H]2CCCN2C(=O)[C@H](CCc2ccc(C(F)(F)F)c(Cl)c2)NC(=O)CN(C)C(=O)[C@H](CC2CCCCC2)N(C)C(=O)[C@@H]2CCN2C(=O)[C@H](C)N(C)C1=O [Compound 677] ([NMeL]I[NMeA][Aze][NMeCha][Sar][hPhe(3-Cl-4-CF3)]P[Ac5c][NMeGly(cPent)]D-NMe2; lactam N-11)
4.1

Please supply the value of reported IC50 for the item CC[C@H](C)[C@@H]1NC(=O)[C@H](CC(C)C)N(C)C(=O)C[C@@H](C(=O)N2CCCCC2)N(C)C(=O)[C@H](C2CCCCC2)N(C)C(=O)C2(CCCC2)NC(=O)[C@@H]2CCCN2C(=O)[C@H](CCc2ccc(S(C)(=O)=O)cc2)NC(=O)CN(C)C(=O)[C@H](CC2CCCCC2)N(C)C(=O)CN(C)C(=O)CN(C)C1=O [Compound 2058] ([NMeL]I[Sar][Sar][NMeCha][Sar][X16]P[Ac5c][NMeChg][NMeD]-Piperidide; lactam N-11)
380

Please supply the value of reported IC50 for the item CC(C)C[C@H]1C(=O)N[C@@H](COCC(F)(F)F)C(=O)N(C)[C@@H](C)C(=O)N2CC[C@H]2C(=O)N(C)[C@@H](CC2CCCCC2)C(=O)N(C)CC(=O)N[C@@H](CCc2ccc(C(F)(F)F)c(Cl)c2)C(=O)N2CCC[C@H]2C(=O)NC2(CCCC2)C(=O)N(C)[C@@H](C(C)C)C(=O)N(C)[C@H](C(=O)N2CCCCC2)CC(=O)N1C [Compound 304] ([NMeL]S(Trifluoroethyl)[NMeA][Aze][NMeCha][Sar][hPhe(3-Cl-4-CF3)]P[Ac5c][NMeV][NMeD]-Piperidide; lactam N-11)
87
